Tested on: LOX IMVI melanoma
Experiment: NCI tumour cell line growth inhibition, 48 h
Use satisfied when the recorded TGI is no lower than 10 µM; use not satisfied when it is lower.

>  <compound>
CCC1([N+](=O)[O-])CC2C=CC1C2 (stereo not given)

>  <label-class>
satisfied

$$$$
>  <compound>
C=CCOC(C)n1c(C)c(Br)c(=O)[nH]c1=O (stereo not given)

>  <label-class>
satisfied

$$$$
>  <compound>
CC(=O)NC1=C(C)C(=O)c2c(nc3n2CCC3OC(=O)c2ccccc2)C1=O (stereo not given)

>  <label-class>
not satisfied

$$$$
>  <compound>
CCOC(=O)C1(C(=O)OCC)OC(=O)NC2=C1CCCC2

>  <label-class>
satisfied

$$$$
>  <compound>
CC(C)(C)OC(=O)NCC(c1c[nH]c2ccc(Br)cc12)c1c[nH]c2ccc(Br)cc12

>  <label-class>
satisfied

$$$$
>  <compound>
CCc1c(C)[nH]c2c1/C(=N/N=C1\CCCc3[nH]c(C)c(CC)c31)CCC2

>  <label-class>
satisfied

$$$$
>  <compound>
CCn1cc(C(=O)N/N=C/c2ccc(Br)cc2)c(=O)c2cc(F)c(N3CCNC(C)C3)c(F)c21 (stereo not given)

>  <label-class>
not satisfied

$$$$
>  <compound>
COc1cc(NC(=O)c2ccc(C(F)(F)F)nc2Nc2ccc(Cl)cc2C)cc(OC)c1OC

>  <label-class>
satisfied

$$$$
>  <compound>
C/C(CC(=O)Nc1ccc(C)c(C)c1)=N\NC(N)=S

>  <label-class>
satisfied

$$$$
>  <compound>
COc1ccccc1-c1cc(=O)c2ccccc2n1C1CC1

>  <label-class>
satisfied

$$$$
